src = the supplement of paper PMC6555819

# Test system: LXRa:RXRa (NR concentration 270 nM, RXRa partner concentration 90 nM)
# Protocol description: PBM binding z-score (relative to random genomic background probes); higher = stronger binding; sequences stand for … in GC…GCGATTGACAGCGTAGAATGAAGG
Documented PBM binding z-score across a set of sequences

{"Residue codes": "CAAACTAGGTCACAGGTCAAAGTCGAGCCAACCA", "PBM binding z-score": 5.19}
{"Residue codes": "ACTCGGAGGAAAAAGGTCAGAGCTACGCCAGTGA", "PBM binding z-score": 3}
{"Residue codes": "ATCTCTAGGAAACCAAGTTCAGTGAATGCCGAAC", "PBM binding z-score": 0.434}
{"Residue codes": "ATCTCTAGGTAAGCAAGTTCAGTGAATGCCGAAC", "PBM binding z-score": 0.323}
{"Residue codes": "TCGAGTAGGTTAGGCGGGGCATTCAGCCAACATA", "PBM binding z-score": 0.211}
{"Residue codes": "CCGATTAGTTGACCATAAGGGCAACCGAAGCTCG", "PBM binding z-score": 0.102}

---

Documented PBM binding z-score across a set of sequences
# Tested on: RARb:RXRa (NR concentration 270 nM, RXRa partner concentration 90 nM)
# Protocol description: PBM binding z-score (relative to random genomic background probes); higher = stronger binding; sequences stand for … in GC…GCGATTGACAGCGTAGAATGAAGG
Measured parameter: PBM binding z-score

{"Residue codes": "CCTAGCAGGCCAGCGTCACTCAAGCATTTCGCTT", "Measured parameter": "PBM binding z-score", "Value reported": -0.122}
{"Residue codes": "ATATGTAGGGTAGCTGGGGTCATTCAGACTAGGC", "Measured parameter": "PBM binding z-score", "Value reported": 2.87}
{"Residue codes": "GGAACGAGGGCATTCGAGTCGATAGCATGGCGAT", "Measured parameter": "PBM binding z-score", "Value reported": 1.48}
{"Residue codes": "CGTCCAAGGTCTAAGGTCAGTGAAGAGATGACGG", "Measured parameter": "PBM binding z-score", "Value reported": 3.71}
{"Residue codes": "CCGACTCGGGCATAAGGTTACCATAAGCCAGCCC", "Measured parameter": "PBM binding z-score", "Value reported": 1.36}
{"Residue codes": "AGAATGAGGTTACCAAAGATCAAGGAAACGCTTG", "Measured parameter": "PBM binding z-score", "Value reported": 2.25}

---

# Test system: FXR:RXRa (NR concentration 270 nM, RXRa partner concentration 90 nM)
# Protocol description: PBM binding z-score (relative to random genomic background probes); higher = stronger binding; sequences stand for … in GC…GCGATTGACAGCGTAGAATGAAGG

{"Residue codes": "TGTCAAAGTTCAATGGTAACGTAAGTATCCACAC", "PBM binding z-score": 5.2}
{"Residue codes": "GCGATTAGTTGAAAGGGCAACCGAATGATTCTCG", "PBM binding z-score": 0.286}
{"Residue codes": "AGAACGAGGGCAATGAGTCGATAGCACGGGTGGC", "PBM binding z-score": 0.187}
{"Residue codes": "AGAACGAGGGAAATGAGTTGATAGCACGGGTGGC", "PBM binding z-score": -0.469}
{"Residue codes": "TCAGATAGGTAAAAGGTGAAAGTCGGTGTGGTAA", "PBM binding z-score": 2.12}

---

# System: PPARg:RXRa 90nM:30nM, anti-RXR (NR concentration 90 nM, RXRa partner concentration 30 nM)
# Protocol description: PBM binding z-score (relative to random genomic background probes); higher = stronger binding; sequences stand for … in GC…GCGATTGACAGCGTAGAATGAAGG

{"Residue codes": "TCAGACAGGTAAAGGTAACTCAGGTACGCAGTCG", "PBM binding z-score": 3.14}
{"Residue codes": "ACTATTAGTTGACTTAGGGCAATCGATACGACGC", "PBM binding z-score": 0.365}
{"Residue codes": "TGAATGAGGTTATAACATCAGGGAACGTTGCAAA", "PBM binding z-score": 1.41}
{"Residue codes": "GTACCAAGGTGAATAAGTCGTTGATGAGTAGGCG", "PBM binding z-score": -0.268}
{"Residue codes": "GCTAGTTGGTCTGTAAAAGGTCACACACCGGTCG", "PBM binding z-score": 4.12}
{"Residue codes": "ATATCTAGGTAAAGTTCAGTGAAAGATCGATAGA", "PBM binding z-score": 4.9}
{"Residue codes": "TAGCCTAGGTCAGATAGGGCCAGTATACGCTATA", "PBM binding z-score": 0.283}

---

# Test system: PPARg:RXRa DBDmut IVT, anti-RXR (DBD mutation: RXRa K156A/R161A, NR concentration 270 nM, RXRa partner concentration 90 nM)
# Protocol description: PBM binding z-score (relative to random genomic background probes); higher = stronger binding; sequences stand for … in GC…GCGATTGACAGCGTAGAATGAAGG
Threshold check on PBM binding z-score: at or above 0.7 gives Met, strictly below gives Not met.

{"Residue codes": "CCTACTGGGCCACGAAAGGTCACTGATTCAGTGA", "Answer label": "Met"}
{"Residue codes": "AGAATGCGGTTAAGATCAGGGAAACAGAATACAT", "Answer label": "Not met"}
{"Residue codes": "ATATGTAGTTTAGCTGGGGTCATTCAGACTAGGC", "Answer label": "Met"}
{"Residue codes": "CGTCCAAGGTCAATGCTACGTCAGTGAAAGCATT", "Answer label": "Met"}
{"Residue codes": "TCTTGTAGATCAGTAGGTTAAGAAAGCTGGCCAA", "Answer label": "Met"}
{"Residue codes": "ATACCAAGGTGATCGTGAGGGCGTTGATACTAAC", "Answer label": "Not met"}
{"Residue codes": "ATCGAAAGGTCGTAGGTGAGTATACCCACCCGAA", "Answer label": "Not met"}
{"Residue codes": "TTATATAGGTAAATGCTAGGTGAAAGTCCGATCT", "Answer label": "Met"}

---

# Tested on: RARb homodimer (NR concentration 270 nM)
# Protocol description: PBM binding z-score (relative to random genomic background probes); higher = stronger binding; sequences stand for … in GC…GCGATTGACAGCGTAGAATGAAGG
# label = bin(measured PBM binding z-score), where bins are Low (below 1), Mid (1 to below 4), High (4 or more)

{"Residue codes": "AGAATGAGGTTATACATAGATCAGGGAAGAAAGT", "Answer label": "Low"}
{"Residue codes": "ATCTCTAGGTAAGACTCAGTTCGGTGAAGAACGC", "Answer label": "Low"}
{"Residue codes": "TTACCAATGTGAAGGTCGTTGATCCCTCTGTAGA", "Answer label": "Mid"}
{"Residue codes": "CATAGTTGGTCAGGAGGTCACACACCGGATATGA", "Answer label": "High"}
{"Residue codes": "ATCGAAAGGTCGCCGAGGTGAGTATACACCGTTT", "Answer label": "Mid"}
{"Residue codes": "TAGCCTAGGTCATGGGCAAGTATACCACGCGAAC", "Answer label": "Mid"}
{"Residue codes": "GTACCAAGGTGATTAGGTCGTTGATGAGTAGGCG", "Answer label": "Mid"}
{"Residue codes": "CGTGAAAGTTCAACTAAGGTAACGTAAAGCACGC", "Answer label": "High"}
{"Residue codes": "CCGACTGGGGCAAGGTTACAATAACGCACAGCCA", "Answer label": "Mid"}
{"Residue codes": "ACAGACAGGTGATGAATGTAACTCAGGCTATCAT", "Answer label": "Low"}
{"Residue codes": "CCTAGTGGGCCACGAAAGGTCATTGATTCAGTGA", "Answer label": "High"}
{"Residue codes": "CTTCCAAGGTGAACAAGGTCGTTGATTACTATTC", "Answer label": "Mid"}
{"Residue codes": "ACTATTAGTTTACTTAGGGCAACCGATACGACGC", "Answer label": "Low"}
{"Residue codes": "ATAGGTAGGTTAAGGGTCATTCAGGTTGGTTCGC", "Answer label": "High"}
{"Residue codes": "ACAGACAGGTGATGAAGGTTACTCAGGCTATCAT", "Answer label": "Mid"}

---

Documented PBM binding z-score across a set of sequences
# Tested on: RARa homodimer (NR concentration 270 nM)
# Protocol description: PBM binding z-score (relative to random genomic background probes); higher = stronger binding; sequences stand for … in GC…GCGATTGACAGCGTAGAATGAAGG
Measured parameter: PBM binding z-score

{"Residue codes": "CGTCCCAGGTCAAAGGTCAGTGAAGAGATGACGG", "Measured parameter": "PBM binding z-score", "Value reported": 1.64}
{"Residue codes": "TCTTGTAGATCAACAGGATGTTAAGAAAGATCGA", "Measured parameter": "PBM binding z-score", "Value reported": 0.0345}
{"Residue codes": "CCTTCTGGGCCAAAGGTCATTGATTCCAATGCTC", "Measured parameter": "PBM binding z-score", "Value reported": 0.576}
{"Residue codes": "CCTGCTAGGTCATGGTCATCTAATCTACAGTATG", "Measured parameter": "PBM binding z-score", "Value reported": 0.16}
{"Residue codes": "TCTTGGAGATCAAAGGTTAAGAAAGCCGAAGCCT", "Measured parameter": "PBM binding z-score", "Value reported": -0.387}
{"Residue codes": "CGTTACGGGTCACTCCAGGTTATAGCATCGGAGT", "Measured parameter": "PBM binding z-score", "Value reported": 0.11}
{"Residue codes": "ATCTCTAGGTAACAAGTTCGGTGAAAGAGAGGAC", "Measured parameter": "PBM binding z-score", "Value reported": 0.59}
{"Residue codes": "CCGACTGGGGCGTAAGGTTACCATAAGCCAGCCC", "Measured parameter": "PBM binding z-score", "Value reported": -0.676}
{"Residue codes": "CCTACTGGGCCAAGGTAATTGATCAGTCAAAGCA", "Measured parameter": "PBM binding z-score", "Value reported": -0.936}
{"Residue codes": "CTCGAAAGGTCGGTTGAGGTGGGTATACGGATAA", "Measured parameter": "PBM binding z-score", "Value reported": 0.507}
{"Residue codes": "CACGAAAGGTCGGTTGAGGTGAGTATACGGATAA", "Measured parameter": "PBM binding z-score", "Value reported": 0.255}
{"Residue codes": "CGTCCAAGGTCAGCAGGTCGGTGAAAGCGACGTG", "Measured parameter": "PBM binding z-score", "Value reported": 0.0156}
{"Residue codes": "CGTCCAAGGTCAAAGCTAGGTCAGTGAAAGCATT", "Measured parameter": "PBM binding z-score", "Value reported": 1.19}
{"Residue codes": "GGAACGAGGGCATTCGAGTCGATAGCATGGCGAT", "Measured parameter": "PBM binding z-score", "Value reported": -0.54}
{"Residue codes": "ATCTCTACGTAACAAGTTCAGTGAAAGAGAGGAC", "Measured parameter": "PBM binding z-score", "Value reported": 0.878}
{"Residue codes": "GCTTATAGATCAAGGTTAAGAAAGACTAAGCTAA", "Measured parameter": "PBM binding z-score", "Value reported": 0.134}
{"Residue codes": "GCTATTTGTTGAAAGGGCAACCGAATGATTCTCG", "Measured parameter": "PBM binding z-score", "Value reported": 1.45}
{"Residue codes": "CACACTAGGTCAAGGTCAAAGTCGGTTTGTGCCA", "Measured parameter": "PBM binding z-score", "Value reported": 3.51}
{"Residue codes": "CCTAGTTGGTCAAGGTCATACACGCTATAGGTAC", "Measured parameter": "PBM binding z-score", "Value reported": 2.79}
{"Residue codes": "ACTATTAGTTGAGACGAGGGCCACCGATAGGTTG", "Measured parameter": "PBM binding z-score", "Value reported": 0.235}
